# measurement target: JAK2 (JH1domain-catalytic, Y1007F,Y1008F) kinase (Homo sapiens, UniProt O60674, Y1007F/Y1008F)
# Construct: JAK2 (JH1domain-catalytic, Y1007F,Y1008F) kinase was expressed as N-terminal fusion
# Sequence (O60674 849-1124 Y1007F/Y1008F limits assumed): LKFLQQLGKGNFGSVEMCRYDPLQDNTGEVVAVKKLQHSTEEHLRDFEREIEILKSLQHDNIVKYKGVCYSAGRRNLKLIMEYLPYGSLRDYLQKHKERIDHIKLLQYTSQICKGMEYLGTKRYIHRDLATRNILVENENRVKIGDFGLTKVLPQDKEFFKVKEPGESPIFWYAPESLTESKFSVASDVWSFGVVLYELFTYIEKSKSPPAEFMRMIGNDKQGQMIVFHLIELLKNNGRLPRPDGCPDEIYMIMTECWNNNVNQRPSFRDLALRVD
# assay explanation: JAK2 JH1 Domain Binding Assay
# assay setup: qPCR readout
# key: entry, value: Kd

Solved cases below.
- compound: "Cn1cc(C(F)(F)F)cc(Nc2nc3ncc(Oc4cnn5cc(OCCN6CCOCC6)ncc45)c(Cl)c3n2C)c1=O"
  Kd: "< 10 nM"
- compound: "COCCOc1ccc2c(Oc3cnc4nc(Nc5cc(C6CC6)cn(CCO)c5=O)n(C)c4c3Cl)cnn2c1"
  Kd: "< 10 nM"

// returns reported Kd for input COc1c(Oc2cnn3ccncc23)cnc2nc(Nc3cc(C4CC4)cn([C@@H](C)CC#N)c3=O)n(C)c12 (single isomer, unassigned)
< 10 nM

Item: CCn1c(C(C)(C)C)ncc(Nc2nc3ncc(Oc4cnn5cc(NC)ncc45)c(Cl)c3n2C)c1=O
10 to 50 nM

----------
# measurement target: JAK2 (JH1domain-catalytic, Y1007F,Y1008F) kinase (Homo sapiens, UniProt O60674, Y1007F/Y1008F)
# Construct: JAK2 (JH1domain-catalytic, Y1007F,Y1008F) kinase was expressed as N-terminal fusion
# assay explanation: JAK2 JH1 Domain Binding Assay
# assay setup: qPCR readout
pKd: −log10 of the molar value.
parameter: pKd

Solved cases below.
- compound: "CO[C@H]1CCN(Cc2ccc(Nc3nc4ncc(Oc5cnn6ccncc56)c(Cl)c4n3C)cc2C(F)(F)F)C1"
  endpoint result: "7.30 to 8.00"
- compound: "CN1CC[C@H](Oc2cc(Nc3nc4ncc(Oc5cnn6ccncc56)c(Cl)c4n3C)cc(C(F)(F)F)c2)C1"
  endpoint result: "> 8.00"
- compound: "Cn1c(Nc2cc3n(n2)CCCC3(C)C)nc2ncc(Oc3cnn4ccnc(OCCO)c34)c(Cl)c21"
  endpoint result: "> 8.00"
- compound: "Cn1c(Nc2cc(C3CC3)cn([C@@H]3CC[C@H]3O)c2=O)nc2ncc(Oc3cnn4ccccc34)c(Cl)c21 (single isomer, unassigned)"
  endpoint result: "> 8.00"
- compound: "Cn1c(Nc2cc(C(C)(C)C)n([C@@H]3CCC[C@@H]3O)n2)nc2ncc(Oc3cnn4ccncc34)c(Cl)c21 (single isomer, unassigned)"
  endpoint result: "> 8.00"

// returns reported pKd for input CNc1nccn2ncc(Oc3cnc4nc(Nc5cc(C(F)(F)F)cn([C@H]6CCCOC6)c5=O)n(C)c4c3Cl)c12 (single isomer, unassigned)
> 8.00

----------
# measurement target: JAK2 (JH1domain-catalytic, Y1007F,Y1008F) kinase (Homo sapiens, UniProt O60674, Y1007F/Y1008F)
# Construct: JAK2 (JH1domain-catalytic, Y1007F,Y1008F) kinase was expressed as N-terminal fusion
# assay explanation: JAK2 JH1 Domain Binding Assay
# assay setup: qPCR readout
parameter: Kd

- compound: "CN1CC[C@H](n2nc(Nc3nc4ncc(Oc5cnc6scnc6c5)c(C(F)F)c4n3C)cc2C(C)(C)C)C1 [Example I-39]"
  endpoint result: "10 to 50 nM"
- compound: "CNc1nccn2ncc(Oc3cnc4nc(Nc5cc(C6CC6)nn(C)c5=O)n(C)c4c3Cl)c12 [Example I-199]"
  endpoint result: "< 10 nM"
- compound: "COc1c(Oc2cnn3ccncc23)cnc2nc(Nc3cc(C(C)(C)C)n([C@@H]4CCN(CCF)C4)n3)n(C)c12 [Example I-62]"
  endpoint result: "10 to 50 nM"
- compound: "Cn1c(Nc2cc(C3CC3)cn([C@H]3C[C@@H](O)C3)c2=O)nc2ncc(Oc3cnn4ccncc34)c(Cl)c21 [Example I-70]"
  endpoint result: "< 10 nM"
- compound: "CNc1cn2ncc(Oc3cnc4nc(Nc5cc(OC[C@@H]6CCCN6C)cc(C(F)(F)F)c5)n(C)c4c3Cl)c2cn1 [Example I-331]"
  endpoint result: "< 10 nM"

// returns reported Kd for input Cn1cc(C(F)(F)F)cc(Nc2nc3ncc(Oc4cnc5[nH]cc(F)c5c4)c(Cl)c3n2C)c1=O [Example I-288]
10 to 50 nM

Item: Cn1c(Nc2cc(C(C)(C)C)n(C3COC3)n2)nc2ncc(Oc3cnn4ccncc34)c(Cl)c21 [Example I-86]
< 10 nM

Cited source: patent US12043632B2
